biological target: UniProt Q86WV6; assay: Displacement of cGAMP from human full length STING HAQ variant expressed in insect microsomes incubated for 16 hrs by TopCount scintillation counting method
Sequence (Q86WV6 whole entry, looked up, change not shown): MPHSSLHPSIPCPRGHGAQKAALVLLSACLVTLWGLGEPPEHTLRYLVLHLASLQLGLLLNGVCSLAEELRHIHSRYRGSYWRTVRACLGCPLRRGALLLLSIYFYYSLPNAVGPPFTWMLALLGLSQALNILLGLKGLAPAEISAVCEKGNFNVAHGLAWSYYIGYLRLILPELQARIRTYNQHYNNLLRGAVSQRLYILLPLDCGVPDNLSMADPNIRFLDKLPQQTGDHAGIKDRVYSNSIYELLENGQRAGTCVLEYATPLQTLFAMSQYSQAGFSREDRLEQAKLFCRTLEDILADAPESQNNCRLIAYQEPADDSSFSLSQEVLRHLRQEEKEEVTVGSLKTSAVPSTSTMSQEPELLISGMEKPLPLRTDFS
READOUT_NAME: pIC50
Please express pIC50 as -log10 of the molar concentration.

query: I have this compound here, COc1cc2sc(C(=O)CC(C)(C)C(=O)O)cc2c(F)c1OCCCOc1c(OC)cc2sc(C(=O)CC(C)(C)C(=O)O)cc2c1F , and I need its recorded pIC50.
result: 8.70

====

molecular target: Stimulator of interferon genes protein (Homo sapiens); experiment: Agonist activity at STING in human THP1-Blue ISG cells assessed as fold change in ISG activation at 10 uM incubated for 24 hrs by Quanti-Luc or Quanti-blue reagent based luminescence assay; format: cell-based; settings: filed as agonist
Sequence (Q86WV6 whole entry): as the sequence (Q86WV6 whole entry, looked up, change not shown) above
READOUT_NAME: fold change (FC)
Answer using only a numeral; do not append any unit.

COMPOUND: COc1cc2cc(C(=O)CCC(=O)O)sc2cc1OC
RESULT: 23.5

COMPOUND: COc1cc2cc(NC(=O)CC(=O)O)sc2cc1OC
RESULT: 1

query: I have this compound here, COc1cc2cc(C(O)CCC(=O)O)sc2cc1OC (stereo not drawn) , and I need its recorded fold change (FC).
result: 0.9

query: Same again, this time with COc1cc2cc(C(=O)SCC(=O)O)sc2cc1OC
result: 1

query: Same again, this time with COc1cc2cc(C(=O)CCC(=O)NOCc3ccccc3)sc2cc1OC
result: 16.5

query: Same again, this time with COc1cc2cc(C3=NOC(C(=O)O)C3)sc2cc1OC (stereo not drawn)
result: 3.8

query: Same again, this time with COc1cc2cc(C(CCC(=O)O)OC)sc2cc1OC (stereo not drawn)
result: 1

query: Same again, this time with COc1cc2cc(C(=O)CCC(=O)ONC(C)C)sc2cc1OC
result: 25.4

====

target: UniProtKB Q86WV6; assay: Binding affinity to STING HAQ variant (unknown origin)
READOUT_NAME: pEC50
Please express pEC50 as -log10 of the molar concentration.

query: I have this molecule here, COc1cc2cc(C(=O)CCC(=O)O)sc2cc1OC , and I need its recorded pEC50.
result: 5.76

====

target: Stimulator of interferon genes protein (Mus musculus) (UniProt Q3TBT3); experiment: Agonist activity at STING in mouse RAW-Lucia ISG cells assessed as fold change in ISG activation at 50 uM incubated for 24 hrs by Quanti-Luc or Quanti-blue reagent based luminescence assay; assay type: cell-based; settings: filed as agonist
Sequence (Q3TBT3 whole entry): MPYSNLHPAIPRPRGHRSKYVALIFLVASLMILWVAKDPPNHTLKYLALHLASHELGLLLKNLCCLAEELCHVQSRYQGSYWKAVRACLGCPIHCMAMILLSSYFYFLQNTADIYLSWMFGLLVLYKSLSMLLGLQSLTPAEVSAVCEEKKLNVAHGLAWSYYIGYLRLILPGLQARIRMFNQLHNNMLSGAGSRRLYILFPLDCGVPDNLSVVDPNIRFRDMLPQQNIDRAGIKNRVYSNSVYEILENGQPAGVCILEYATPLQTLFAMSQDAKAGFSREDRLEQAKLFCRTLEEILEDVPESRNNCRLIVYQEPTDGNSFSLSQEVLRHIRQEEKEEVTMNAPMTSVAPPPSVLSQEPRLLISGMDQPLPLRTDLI
READOUT_NAME: fold change (FC)
Answer using only a numeral; do not append any unit.

Check out these entries, answers already filled in.
COMPOUND: COc1cc2cc(C(=O)CCC(=O)N(C)O)sc2cc1OC
RESULT: 0.7

COMPOUND: COc1cc2cc(C(=O)CCC(=O)O)oc2cc1OC
RESULT: 1

COMPOUND: COc1cc2cc(C(=O)CCC(=O)ONC(C)C)sc2cc1OC
RESULT: 19.3

COMPOUND: COc1cc2cc(C(=O)CCC(=O)N(O)Cc3ccccc3)sc2cc1OC
RESULT: 1.1

COMPOUND: COc1cc2cc(C(CCC(=O)O)OC)sc2cc1OC (stereo unspecified)
RESULT: 0.5

Attention now turns to another entry.
query: // map COc1cc2cc(C(=O)CCC(=O)N(C)OC)sc2cc1OC to recorded fold change (FC) (system: Stimulator of interferon genes protein (Mus musculus) (UniProt Q3TBT3))
result: 0.5

====

target: Stimulator of interferon genes protein (Homo sapiens); experiment: Agonist activity at STING in human THP-1 cells assessed as increase in IFN-beta secretion incubated for 5 hrs by AlphaLISA assay; format: cell-based
READOUT_NAME: pEC50
Please express pEC50 as -log10 of the molar concentration.

query: I have this compound here, COc1cc2sc(C(=O)CC(C)(C)C(=O)O)cc2c(F)c1OCCCOc1c(OC)cc2sc(C(=O)CC(C)(C)C(=O)O)cc2c1F , and I need its recorded pEC50.
result: 8.10

====

molecular target: Stimulator of interferon genes protein (Homo sapiens); assay: Agonist activity at STING in human THP1-Blue ISG cells assessed as fold change in ISG activation at 10 uM incubated for 24 hrs by Quanti-Luc or Quanti-blue reagent based luminescence assay; format: cell-based; details: filed as agonist
READOUT_NAME: fold change (FC)
Answer using only a numeral; do not append any unit.

Check out these entries, answers already filled in.
SMILES_STR: CONC(=O)CCC(=O)c1cc2cc(OC)c(OC)cc2s1
READOUT_NAME: fold change (FC)
RESULT: 24.2
//
SMILES_STR: COc1cc2nc(C(=O)CCC(=O)O)[nH]c2cc1OC
READOUT_NAME: fold change (FC)
RESULT: 0.9
//
SMILES_STR: COc1cc2cc(C(=O)CCC(=O)ONC(C)(C)C)sc2cc1OC
READOUT_NAME: fold change (FC)
RESULT: 21.2

query: I have this compound here, COc1cc2cc(C(=O)CCCC(=O)O)sc2cc1OC , and I need its recorded fold change (FC).
result: 1.1

query: Same again, this time with COc1cc2cc(C(=O)CCC(=O)O)oc2cc1OC
result: 0.9

query: Same again, this time with COc1cc2cc(C(=O)NCCC(=O)O)sc2cc1OC
result: 1.2

====

biological target: UniProt:Q3TBT3; assay: Agonist activity at STING in mouse RAW-Lucia ISG cells assessed as fold change in ISG activation at 50 uM incubated for 24 hrs by Quanti-Luc or Quanti-blue reagent based luminescence assay; type: cell-based; settings: filed as agonist
// reported fold change (FC) for each item listed
Answer using only a numeral; do not append any unit.

COMPOUND: COc1cc2c(cc1OC)S(=O)(=O)C(C(=O)CCC(=O)O)=C2
RESULT: 0.7
--
COMPOUND: COc1cc2cc(-c3cc(C(=O)O)[nH]n3)sc2cc1OC
RESULT: 1
--
COMPOUND: COc1cc2cc(C(=O)CCC(=O)ONC3CCCCC3)sc2cc1OC
RESULT: 1.1
--
COMPOUND: COc1cc2cc(C(=O)CCC(=O)ONCc3ccccc3)sc2cc1OC
RESULT: 25.3
--
COMPOUND: COc1cc2cc(C(=O)CCC(=O)N(O)C(C)C)sc2cc1OC
RESULT: 1.2

query: I have this compound here, COc1cc2nc(C(=O)CCC(=O)O)[nH]c2cc1OC , and I need its recorded fold change (FC).
result: 1.1

query: Same again, this time with COc1cc2cc(C(=O)CCC(=O)NOCc3ccccc3)sc2cc1OC
result: 0.8

query: Same again, this time with COc1cc2cc(NC(=O)CC(=O)O)sc2cc1OC
result: 1.1

query: Same again, this time with COc1cc2cc(C(=O)CCCC(=O)O)sc2cc1OC
result: 0.8

query: Same again, this time with COc1cc2cc(C3=NOC(C(=O)O)C3)sc2cc1OC (stereo not drawn)
result: 0.9

query: Same again, this time with COc1cc2cc(C(=O)CCC(=O)O)sc2cc1OC
result: 13.6

query: Same again, this time with COc1cc2cc(C(=O)SCC(=O)O)sc2cc1OC
result: 1

query: Same again, this time with CONC(=O)CCC(=O)c1cc2cc(OC)c(OC)cc2s1
result: 2.7

====

biological target: Stimulator of interferon genes protein (Homo sapiens, UniProt Q86WV6); assay: Agonist activity at STING in human THP1-Blue ISG cells assessed as fold change in ISG activation at 10 uM incubated for 24 hrs by Quanti-Luc or Quanti-blue reagent based luminescence assay; assay type: cell-based; settings: filed as agonist
// reported fold change (FC) for each item listed
Answer using only a numeral; do not append any unit.

Check out these entries, answers already filled in.
SMILES_STR: COc1cc2c(cc1OC)S(=O)(=O)C(C(=O)CCC(=O)O)=C2
fold change (FC): 1.1
--
SMILES_STR: COc1cc2cc(C(=O)CCC(=O)N(O)Cc3ccccc3)sc2cc1OC
fold change (FC): 2.3
--
SMILES_STR: COc1cc2cc(C(=O)CCC(=O)ONC3CCCCC3)sc2cc1OC
fold change (FC): 25
--
SMILES_STR: COc1cc2cc(C(=O)CCC(=O)N(O)C(C)C)sc2cc1OC
fold change (FC): 1
--
SMILES_STR: COc1cc2cc(CCCC(=O)O)sc2cc1OC
fold change (FC): 1
--
SMILES_STR: COc1cc2cc(C(=O)CCC(=O)ONCc3ccccc3)sc2cc1OC
fold change (FC): 22.4

query: // map COc1cc2cc(-c3cc(C(=O)O)[nH]n3)sc2cc1OC to recorded fold change (FC) (system: Stimulator of interferon genes protein (Homo sapiens, UniProt Q86WV6))
result: 1

query: Same again, this time with COc1cc2cc(C(=O)CCC(=O)N(C)OC)sc2cc1OC
result: 3.2

query: Same again, this time with COc1cc2cc(C(=O)NCC(=O)O)sc2cc1OC
result: 1.2

query: Same again, this time with COc1cc2cc(C(=O)CCC(=O)N(C)O)sc2cc1OC
result: 15
